System: UACC-62 melanoma
Test: NCI tumour cell line growth inhibition, 48 h
Each entry below lists one item and its recorded TGI value.
Numeric answer only, unit µM assumed.

Oc1c(Br)cc(Cl)cc1C(c1cc(Cl)cc(Br)c1O)C(Cl)(Cl)Cl; 8.99

If you can, please state the reported TGI value of Cc1cn([C@H]2C[C@@H](N3C(=O)c4ccccc4C3=O)[C@@H](CO[Si](C)(C)C(C)(C)C)O2)c(=O)[nH]c1=O .
74.9

Try this compound next: Cn1cc(-c2ccc3c(c2)ncn3-c2cc(NS(=O)(=O)C3CC3)cc(-c3ccc(F)cc3F)c2)cn1
73.1

Let us now turn to COc1cc2c(cc1OCCN1CCN(CCN3C(=O)c4cccc5cccc(c45)C3=O)CC1)N=C[C@@H]1CCCN1C2=O
35

And then CN(C)CCCC1(c2ccc(F)cc2)OCc2cc(-c3csc4ccccc34)ccc21 (centres undefined) , what is it?
3.13

Follow-up item: COc1ccc(-n2c(=O)c3ccccc3n(Cc3ccc(C(=O)NO)cc3)c2=O)cc1
4.28

* * *

Test system: 786-0 renal
Experiment: NCI tumour cell line growth inhibition, 48 h; in the data active = GI50 below about 0.43 µM; inactive = the rest
Answer with one of the outcomes active, inactive

O=C1NC(=O)C2C3C=CC(C12)C1C2C(=O)NC(=O)C2C31 (stereo not given); inactive
C#CCCCCCC(=O)N[C@H]1C=C[C@@H]2/C=C(C)/C=C/[C@@H](C)[C@H]([C@H](C)[C@H](O)[C@@H](C)NC(C)=O)OC(=O)/C=C/C=C(C)\C=C\[C@]2(C)C1; active
O=C(CCN1CCOCC1)Nc1ccc(Cn2nnc3c2C(=O)c2nnn(Cc4ccc(NC(=O)CCN5CCOCC5)cc4)c2C3=O)cc1; inactive
CN(C)c1ccc(/C=N/N=C(\C#N)[S][Sn]([Cl])([c]2ccccc2)[c]2ccccc2)cc1; inactive

Hi, sorry to bother you, what did the test record for CN(C)CCCC1(c2ccc(F)cc2)OCc2cc(-c3csc4ccccc34)ccc21 (stereo not given) ?
inactive

Same question, c1cc(OCCCCCOc2cccc(-c3nc4ccccc4[nH]3)c2)cc(-c2nc3ccccc3[nH]2)c1 this time
inactive

And CC[C@]12C=CCN3CC[C@@]4(c5ccc(OC)cc5N(C)[C@H]4[C@@](O)(C(=O)OC)[C@@H]1OC(=O)CCCN1CCN(CCCC(=O)O[C@@H]4[C@]5(CC)C=CCN6CC[C@@]7(c8ccc(OC)cc8N(C)[C@H]7[C@@]4(O)C(=O)OC)[C@@H]65)CC1)[C@@H]32 ?
inactive

Same question for COc1ccc([C@@H]2[C@@H](Oc3ccccc3)C(=O)N2c2cc(OC)c(OC)c(OC)c2)cc1F please.
active

Proceed to CNCc1cccc2c1OCCOCCOCCNS(=O)(=O)c1ccc(cc1)-c1cnc(N)c(n1)C(=O)N2
inactive

Next record, please: COc1ccc(-c2c(Nc3ccccn3)nc3c(C4=CCCCC4)c(-c4ccccc4)[nH]n3c2=O)cc1
inactive

* * *

System: BT-549 breast
Assay: NCI tumour cell line growth inhibition, 48 h; in the data active = GI50 below about 0.43 µM; inactive = the rest
Classes to choose from: active, inactive

Observe how each entry below is paired with its result.
CC(C)c1ccc2c(c1)CCC1C2CCCC1(C)NCc1ccccc1 (stereo not drawn); inactive
COc1cc2c(Oc3ccc(-c4cnc(Nc5ccc(F)cc5)n(C)c4=O)cc3F)ccnc2cc1OCCCN1CCOCC1; inactive
COc1cc2c3c(n(CCCN)c(=O)c2cc1OC)-c1ccc(N)cc1C3=O; inactive
C=CCN(CC=C)Cc1c[nH]c2ccccc12; inactive

Status in this test for O=C(O)c1cn(C2CC2)c2cc(N3CCN(C(=O)N(c4ccccc4)c4nc(-c5ccccc5)cs4)CC3)c(F)cc2c1=O ?
active

COC(=O)C(C)NP(=O)(OCc1cccc(Cn2cnc3c(N)ncnc32)c1)Oc1ccccc1 (stereo not drawn) ?
inactive

Now give it for CN(C)[C@@H]1C(=O)C(C(=O)NCc2nc3[nH]cnc(=S)c3[nH]2)=C(O)[C@@]2(O)C(=O)C3=C(O)c4c(O)cccc4[C@@](C)(O)[C@H]3C[C@@H]12 too.
inactive

Now the same for O=C1c2ccccc2-c2c1c1c(O)cccc1n2Cc1ccccc1
inactive
